- Tgt: THRα (Homo sapiens, UniProt P10827)
- Construct: GST
- Sequence (P10827 1-410 isoform P10827-2): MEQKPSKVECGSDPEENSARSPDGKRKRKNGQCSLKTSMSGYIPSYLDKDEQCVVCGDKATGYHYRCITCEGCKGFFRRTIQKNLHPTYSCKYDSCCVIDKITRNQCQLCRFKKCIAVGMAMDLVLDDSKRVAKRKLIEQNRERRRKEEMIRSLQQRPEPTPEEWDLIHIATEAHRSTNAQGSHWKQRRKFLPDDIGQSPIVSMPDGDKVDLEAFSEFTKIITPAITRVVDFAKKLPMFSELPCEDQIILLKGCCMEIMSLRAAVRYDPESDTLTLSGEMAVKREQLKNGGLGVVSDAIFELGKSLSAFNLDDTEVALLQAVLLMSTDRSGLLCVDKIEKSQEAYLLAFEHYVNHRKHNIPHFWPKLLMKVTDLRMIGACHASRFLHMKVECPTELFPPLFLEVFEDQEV
- Sequence (P19793 225-462 partner limits assumed): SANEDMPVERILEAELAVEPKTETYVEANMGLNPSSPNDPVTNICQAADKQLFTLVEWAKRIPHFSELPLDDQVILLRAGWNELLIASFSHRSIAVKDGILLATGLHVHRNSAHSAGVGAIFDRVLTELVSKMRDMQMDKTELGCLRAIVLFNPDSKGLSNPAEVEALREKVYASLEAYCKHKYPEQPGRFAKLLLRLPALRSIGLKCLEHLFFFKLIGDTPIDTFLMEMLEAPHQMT
- Sequence (Q15596 679-703 partner limits assumed): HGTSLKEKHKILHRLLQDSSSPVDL
- Test Summary: THRα agonist activity, fluorescence ratio 665 nm/615 nm with EE-RxRα and biotin-GRIP
- Conditions: incubated overnight at 4° C.
Parameter Measured: pEC50
pEC50 (log units): -log10 of the concentration in mol/L.

Check out these entries, answers already filled in.
{"Query Smiles": "CC(C)(C)Cc1cc(Oc2c(Cl)cc(-n3cc(C#N)c(=O)[nH]c3=O)cc2Cl)n[nH]c1=O", "Measured": 5.18}
{"Query Smiles": "N#Cc1nn(-c2ccc(Oc3n[nH]c(=O)cc3C3CC3)c(Cl)c2)c(=O)[nH]c1=O", "Measured": 9.00}

Incoming: Return pEC50 for the following compound: CC(C)c1cc(Oc2c(Br)cc(-n3nc(C#N)c(=O)[nH]c3=O)cc2Br)n[nH]c1=O
Outgoing: 7.42

Incoming: Give the reported value of pEC50 for this record: CC(C)Cc1cc(Oc2c(Cl)cc(-n3nc(C#N)c(=O)[nH]c3=O)cc2Cl)n[nH]c1=O
Outgoing: 5.47

Incoming: Tell me its pEC50 given CC(C)c1cc(Oc2cc(Cl)c(-n3cc(C#N)c(=O)[nH]c3=O)cc2Cl)n[nH]c1=O as the entry.
Outgoing: 4.62

Incoming: State its pEC50: COc1cc(-n2nc(C#N)c(=O)[nH]c2=O)ccc1Oc1n[nH]c(=O)c(C)c1C
Outgoing: 4.29

Incoming: State its pEC50 for this compound: COc1cc(-n2nc(C#N)c(=O)[nH]c2=O)ccc1Oc1cc(C(C)C)c(=O)[nH]n1
Outgoing: 5.29

Incoming: Determine its reported pEC50: N#Cc1nn(-c2ccc(Oc3cc(CC4CCCC4)c(=O)[nH]n3)c(Cl)c2)c(=O)[nH]c1=O
Outgoing: 5.21

====

- Tgt: THRβ (Homo sapiens)
- Construct: GST
- Test Summary: THRβ agonist activity, fluorescence ratio 665 nm/615 nm with EE-RxRα and biotin-GRIP
- Conditions: incubated overnight at 4° C.
- Method: Test compound was dissolved and serially diluted in dimethyl sulfoxide (DMSO) with a final compound concentration of 60 mM. […] Buffer 1 was employed again to prepare EE-RxRα at the same concentrations as those of THRα and THRβ, respectively. Buffer 1+5% DMSO was employed to prepare biotin-GRIP (THRα: […], THRβ: 100 nM). Buffer 2 (50 mM Tris, pH 7.4, 100 mM NaCl, and 0.2 mg/mL BSA) was employed to prepare a mixed solution of 2×Eu-anti-GST and 2×streptavidin-d2. […]
Parameter Measured: pEC50
Reminder that pEC50 means the negative base-10 logarithm of the concentration expressed in mol/L.

{"Query Smiles": "CC(C)c1cc(Oc2ccc(-n3nc(C#N)c(=O)[nH]c3=O)cc2F)n[nH]c1=O", "Tgt": "THRβ (Homo sapiens)", "pEC50": 5.57}

Could you now consider this next molecule?
Incoming: Tell me its pEC50 given CC(C)(C)Cc1cc(Oc2cc(Cl)c(-n3nc(C#N)c(=O)[nH]c3=O)cc2Cl)n[nH]c1=O as the entry.
Outgoing: 5.34

====

- Tgt: THRβ (Homo sapiens, UniProt P10828)
- Construct: GST
- Sequence (P10828 whole entry): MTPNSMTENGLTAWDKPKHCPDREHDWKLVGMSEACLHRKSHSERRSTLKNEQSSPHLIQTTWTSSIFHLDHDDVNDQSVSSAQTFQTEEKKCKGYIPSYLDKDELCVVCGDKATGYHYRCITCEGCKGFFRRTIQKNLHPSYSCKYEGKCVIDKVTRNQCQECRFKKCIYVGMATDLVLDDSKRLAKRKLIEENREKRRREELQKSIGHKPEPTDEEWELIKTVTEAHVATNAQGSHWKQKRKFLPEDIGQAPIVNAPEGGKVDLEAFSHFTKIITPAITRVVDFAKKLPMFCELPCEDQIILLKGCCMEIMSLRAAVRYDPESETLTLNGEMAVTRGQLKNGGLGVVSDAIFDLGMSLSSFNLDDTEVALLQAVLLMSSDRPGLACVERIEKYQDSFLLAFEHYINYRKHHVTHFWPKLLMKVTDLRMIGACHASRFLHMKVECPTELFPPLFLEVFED
- Sequence (P19793 225-462 partner limits assumed): as the sequence (P19793 225-462 partner limits assumed) above
- Test Summary: THRβ agonist activity, fluorescence ratio 665 nm/615 nm with EE-RxRα and biotin-GRIP
- Conditions: incubated overnight at 4° C.
The following molecules are shown together with reported log10 of EC50 values.
A value of 2 here means EC50 of 100 in nM, since values are log10.

Some entries whose results are on file:
{"Query Smiles": "N#Cc1nn(-c2ccc(Oc3cc(C4CCCC4)c(=O)[nH]n3)cc2Cl)c(=O)[nH]c1=O", "Measured": 3.88}
{"Query Smiles": "CC(C)(C)c1cc(Oc2c(Cl)cc(-c3nn[nH]n3)cc2Cl)n[nH]c1=O", "Measured": 2.67}
{"Query Smiles": "N#Cc1nn(-c2cc(Cl)c(Oc3cc(CC4CCCC4)c(=O)[nH]n3)cc2Cl)c(=O)[nH]c1=O", "Measured": 2.57}
{"Query Smiles": "COc1cc(-n2nc(C#N)c(=O)[nH]c2=O)ccc1Oc1cc(CC(C)(C)C)c(=O)[nH]n1", "Measured": 3.18}
{"Query Smiles": "CC(C)(C)Cc1cc(Oc2ccc(-n3nc(C#N)c(=O)[nH]c3=O)cc2Cl)n[nH]c1=O", "Measured": 1.82}
{"Query Smiles": "CC(C)Cc1cc(Oc2c(Cl)cc(-n3nc(C#N)c(=O)[nH]c3=O)cc2Cl)n[nH]c1=O", "Measured": 1.40}

Incoming: Note log10 of EC50 for the molecule shown: CC(C)(C)c1cc(Oc2ccc(-n3nc(C#N)c(=O)[nH]c3=O)cc2Cl)n[nH]c1=O
Outgoing: 2.91

Incoming: Answer with the recorded log10 of EC50 of N#Cc1nn(-c2cc(Cl)c(Oc3n[nH]c(=O)cc3C3CCCC3)c(Cl)c2)c(=O)[nH]c1=O only.
Outgoing: 2.89

Incoming: Name the recorded log10 of EC50 of the molecule listed here: CC(C)c1cc(Oc2c(Br)cc(-n3nc(C#N)c(=O)[nH]c3=O)cc2Br)n[nH]c1=O
Outgoing: 2.01

Incoming: Recall and state the measured log10 of EC50 for N#Cc1nn(-c2ccc(Oc3cc(CC4CCCC4)c(=O)[nH]n3)cc2)c(=O)[nH]c1=O .
Outgoing: 3.28

Taken from patent US11964962B2.
